# METHOD: MTT cytotoxicity assay in diploid lung fibroblasts WI-38
# Assay type: cell-based, human
# APPLIED_CONDITIONS: human, WI-38 diploid lung fibroblasts; WI-38, at 177 µM, 72 h; read-out: cell viability
READOUT_LABEL: viability at 72 h, 177 µM

May I ask what viability at 72 h, 177 µM has been recorded for C#CC(S)CCCCCCCCCCCCCCC (racemic) [rac-40, Octadec-1-yne-3-thiol] ?
~100%

====

# METHOD: MTT cytotoxicity assay in diploid lung fibroblasts WI-38
# Assay type: cell-based, human
# APPLIED_CONDITIONS: human, WI-38 diploid lung fibroblasts; WI-38, at 119 µM, 72 h; read-out: cell viability
READOUT_LABEL: viability at 72 h, 119 µM

May I ask what viability at 72 h, 119 µM has been recorded for C#CC(CCCCCCCCCCCCCCC)OS(=O)(=O)c1ccc(C)cc1 (racemic) [rac-35] ?
~85%

====

# Test system: NSCLC U-1810 cells
# METHOD: MTT cytotoxicity assay in NSCLC U-1810 cells
# Format: cell-based, human
# APPLIED_CONDITIONS: MTT, 72 h post addition, estimated from cell viability curve
READOUT_LABEL: pIC50
Bear in mind: pIC50 is minus log10 of a mol/L concentration; give just that figure.

May I ask what pIC50 has been recorded for C#C[C@H](O)/C=C/CCCCCCCCCCCCCCC [Compound R-18, (R,E)-icos-4-en-1-yn-3-ol] ?
6.05

====

# METHOD: MTT cytotoxicity assay in diploid lung fibroblasts WI-38
# Assay type: cell-based, human
# APPLIED_CONDITIONS: human, WI-38 diploid lung fibroblasts; WI-38, at 188 µM, 72 h; read-out: cell viability
READOUT_LABEL: viability at 72 h, 188 µM

C#C[C@H](O)CCCCCCCCCCCCCCC [Compound R-32, (R)-octadec-1-yn-3-ol] = ~60%

May I ask what viability at 72 h, 188 µM has been recorded for C#C[C@@H](O)CCCCCCCCCCCCCCC [Compound S-32, (S)-octadec-1-yn-3-ol] ?
~80%

====

# Tested on: WI-38 diploid lung fibroblasts
# METHOD: MTT cytotoxicity assay in diploid lung fibroblasts WI-38
# Type: cell-based, human
# APPLIED_CONDITIONS: MTT, 72 h post addition, confluent cells, estimated from cell viability curve
READOUT_LABEL: pIC50
Bear in mind: pIC50 is minus log10 of a mol/L concentration; give just that figure.

May I ask what pIC50 has been recorded for C#C[C@H](O)/C=C/CCCCCCCCCCCCCCC [Compound R-18, (R,E)-icos-4-en-1-yn-3-ol] ?
5.47

====

# METHOD: MTT cytotoxicity assay in diploid lung fibroblasts WI-38
# Assay type: cell-based, human
# APPLIED_CONDITIONS: human, WI-38 diploid lung fibroblasts; WI-38, at 179 µM, 72 h; read-out: cell viability
# Experimental: Cytotoxicity structure-activity relationship analyses of compounds in NSCLC tumor cells and fibroblasts. […] The cytotoxicity of the compounds was assessed at 72 h post addition to cells by adding MTT solution (0.5 mg/mL, Sigma-Aldrich, 4 h at 37 °C) and dissolving the resulting formazan crystals in an SDS-containing solution (10% SDS and 0.01 mol/L HCl). Absorbance was quantified at 595 nm and the compound-induced cytotoxicity was calculated relative to that observed in DMSO-treated cells. […]
READOUT_LABEL: viability at 72 h, 179 µM

May I ask what viability at 72 h, 179 µM has been recorded for C#CC(CCCCCCCCCCCCCCC)OC (racemic) ?
~77%
